Values were extracted from patent US20110306641A1.

Test system: Calvarial cell
Test: Cytotoxicity test (MTT) in osteoblasts (calvarial cells)
Details: 1 μM, 72 hours, vs vehicle control
metric_name: Cell viability (%) Calvarial cell
Express the result in % but write the number alone.

Some molecules with known Cell viability (%) Calvarial cell results, for comparison:
CNc1ccc([N+](=O)[O-])c(Nc2ccc3cn[nH]c3c2)n1 :: 97
CN(C)c1ccc([N+](=O)[O-])c(Nc2ccc3[nH]ncc3c2)n1 :: 106
O=[N+]([O-])c1ccc(NCc2cccnc2)nc1Nc1ccc2[nH]ncc2c1 :: 103
CC(C)c1nccn1-c1ccc([N+](=O)[O-])c(Nc2ccc3[nH]ncc3c2)n1 :: 118
O=[N+]([O-])c1ccc(NCCc2c[nH]cn2)nc1Nc1ccc2[nH]ncc2c1 :: 96

Challenge: Request body: readout Cell viability (%) Calvarial cell, system Calvarial cell, query O=[N+]([O-])c1ccc(NCCN2CCOCC2)nc1Nc1ccc2cn[nH]c2c1 . Return the value.
Response given: 104

Challenge: Query Cc1cncn1-c1ccc([N+](=O)[O-])c(Nc2ccc3[nH]ncc3c2)n1 next
Response given: 101

Challenge: Next up: O=[N+]([O-])c1ccc(NCc2cccnc2)nc1Nc1ccc2cn[nH]c2c1
Response given: 99

Challenge: Same thing, different molecule: CC(C)Nc1ccc([N+](=O)[O-])c(Nc2ccc3[nH]ncc3c2)n1
Response given: 97

Challenge: Similarly, CC1CN(c2ccc([N+](=O)[O-])c(Nc3ccc4[nH]ncc4c3)n2)CC(C)N1 (stereo not shown) ?
Response given: 96

Challenge: And the next one, CC(C)Nc1ccc([N+](=O)[O-])c(Nc2ccc3cn[nH]c3c2)n1 ?
Response given: 97

Challenge: // same read-out, input: CN1CCN(c2ccc([N+](=O)[O-])c(Nc3ccc4[nH]ncc4c3)n2)CC1
Response given: 97

Challenge: Item: CN1CCN(Nc2ccc([N+](=O)[O-])c(Nc3ccc4[nH]ncc4c3)n2)CC1
Response given: 106
